test: Inhibition of HIV1 reverse transcriptase Y181C mutant by SPA assay
pIC50: −log10 of the molar value.
Metric: pIC50

Given Smiles: CS(=O)(=O)c1ccc(NC(=O)CSC(=O)N2CCCc3cc(Cl)cc(Cl)c32)c(Cl)c1
Obs Value: 7.96
--
Given Smiles: O=C(CSC(=O)N1CCCc2cc(Cl)cc(Cl)c21)Nc1ccc(C(=O)NCc2ccccc2)cc1Cl
Obs Value: 8.40
--
Given Smiles: O=C(CSC(=O)N1CCCc2cc(Cl)cc(Cl)c21)Nc1ccccc1Cl
Obs Value: 6.76

Origin of measurements: BindingDB's records for doi:10.1016/j.bmcl.2009.07.031
